# Test system: LoVo-Dox
# experiment_notes: SRB colorimetric assay of cell growth and viability, LoVo-Dox
# Type: cell-based, human
# condition_context: LOVO-DOX; 48 hours exposure
# Description: The finality of this assay is to interrupt the growth of a “in vitro” tumor cell culture by means a continued exhibition of the cells to the sample to be testing. A colorimetric type of assay, using sulforhodamine B (SRB) reaction has been adapted for a quantitative measurement of cell growth and viability [following the technique described by Philip Skehan, et al. (1990), New colorimetric cytotoxicity assay for anticancer drug screening, J. Natl. Cancer Inst., 82:1107-1112]. […]
Where a SMILES comes first, the peptide text is derived from it. Bridges are numbered along the chain shown (N, C = ends). [ ]: non-standard residue; d: D form. The star is where a group is joined. d(aIle) = CC[C@H](C)[C@@H](N)C(=O)O; d(aThr) = C[C@@H](O)[C@@H](N)C(=O)O; Hexanoyl(5-Me) = CC(C)CCCC(=O)*; Orn = NCCC[C@H](N)C(=O)O; Dhb = C/C=C(\N)C(=O)O
Mark each entry t if its GI50 sits below 200 nM, and f for all others.

[
  {
    "molecule": "C/C=C1\\NC(=O)[C@H](Cc2ccccc2)NC(=O)[C@@H](C(C)C)NC(=O)[C@@H]([C@@H](C)CC)NC(=O)[C@H](NC(=O)[C@H](NC(=O)[C@H](CCCN)NC(=O)[C@H]2CCCN2C(=O)[C@H](NC(=O)[C@@H](NC(=O)[C@H](CCCN)NC(=O)[C@H](NC(=O)CCCC(C)C)C(C)C)C(C)C)C(C)C)[C@@H](C)CC)[C@@H](C)OC(=O)[C@H](C(C)C)NC1=O [Compound 116, [Orn^12]-KF] ({Hexanoyl(5-Me)}-[dV][Orn]V[dV][dP][Orn][d(aIle)][d(aThr)][d(aIle)][dV]F[Dhb]V; ester 8-C)",
    "category": "f"
  },
  {
    "molecule": "C/C=C1\\NC(=O)[C@H](Cc2ccccc2)NC(=O)[C@@H](C(C)C)NC(=O)[C@@H]([C@@H](C)CC)NC(=O)[C@H](NC(=O)[C@H](NC(=O)[C@H](CCCNC(=O)CCCC[C@@H]2SC[C@@H]3NC(=O)N[C@@H]32)NC(=O)[C@H]2CCCN2C(=O)[C@H](NC(=O)[C@@H](NC(=O)[C@@H](NC(=O)[C@H](NC(=O)CCCC(C)C)C(C)C)[C@@H](C)O)C(C)C)C(C)C)[C@@H](C)CC)[C@@H](C)OC(=O)[C@H](C(C)C)NC1=O [Compound 99, [Orn(Biot)^8]-Kahalalide F]",
    "category": "t"
  }
]

Input: Please let me know if [2H]C([2H])([2H])C([2H])(C([2H])([2H])[2H])[C@]([2H])(NC(=O)[C@@H](NC(=O)[C@H](NC(=O)CCCC(C)C)C(C)C)[C@@H](C)O)C(=O)N[C@@H](C(=O)N1CCC[C@@H]1C(=O)N[C@@H](CCCN)C(=O)N[C@@H](C(=O)N[C@H]1C(=O)N[C@H]([C@@H](C)CC)C(=O)N[C@H](C(C)C)C(=O)N[C@@H](Cc2ccccc2)C(=O)N/C(=C\C)C(=O)N[C@@H](C(C)C)C(=O)O[C@@H]1C)[C@@H](C)CC)C(C)C [Compound 100, [L-Val-d8^11]-KF] shows GI50 below 200 nM.
Output: t

Input: Please let me know if C/C=C1\NC(=O)[C@H](Cc2ccccc2)NC(=O)[C@@H](C(C)C)NC(=O)[C@@H]([C@@H](C)CC)NC(=O)[C@H](NC(=O)[C@H](NC(=O)[C@H](CCCN)NC(=O)[C@H]2CCCN2C(=O)[C@H](NC(=O)[C@@H](NC(=O)[C@H](CC(C)C)NC(=O)[C@H](NC(=O)CCCC(C)C)C(C)C)C(C)C)C(C)C)[C@@H](C)CC)[C@@H](C)OC(=O)[C@H](C(C)C)NC1=O [Compound 113, [Leu^12]-KF] ({Hexanoyl(5-Me)}-[dV]LV[dV][dP][Orn][d(aIle)][d(aThr)][d(aIle)][dV]F[Dhb]V; ester 8-C) shows GI50 below 200 nM.
Output: f

Input: Please let me know if C/C=C1\NC(=O)[C@H](Cc2ccccc2)NC(=O)[C@@H](C(C)C)NC(=O)[C@@H]([C@@H](C)CC)NC(=O)[C@H](NC(=O)[C@H](NC(=O)[C@H](CCCN)NC(=O)[C@H]2CCCN2C(=O)[C@H](NC(=O)[C@@H](NC(=O)[C@@H](NC(=O)[C@@H](CCCN)NC(=O)CCCC(C)C)[C@@H](C)O)C(C)C)C(C)C)[C@@H](C)CC)[C@@H](C)OC(=O)[C@H](C(C)C)NC1=O [Compound 118, [D-Orn^13]-KF] shows GI50 below 200 nM.
Output: f
